- TARGET_OR_SYSTEM: MMP-13 (catalytic domain of collagenase 3) (Homo sapiens, UniProt P45452)
- TEST_PROTOCOL: Thiopeptolide substrate hydrolysis assay, MMP-13
- Assay type: biochemical
- STATED_CONDITIONS: catalytic domain of collagenase 3; Table 1; read-out: MMP-13 IC50
MEASUREMENT_KIND: log10(IC50) (log10 of the value in µM)
Give log10 of IC50, with IC50 taken in µM.

In: Report log10(IC50) for "COc1ncc(C(=O)NCc2ccc3c(c2)OCO3)cc1C(=O)NCc1ccc2c(c1)OCO2"
Out: -0.64

In: Report log10(IC50) for "O=C(NCc1ccc2c(c1)OCO2)c1ccnc(C(=O)NCc2ccc3c(c2)OCO3)c1"
Out: -1.85

In: Report log10(IC50) for "O=C(NCc1ccc2c(c1)OCO2)c1cncc(C(=O)NCc2ccc3c(c2)OCO3)c1"
Out: 0.36

In: Report log10(IC50) for "COc1cccc(CNC(=O)c2ccnc(C(=O)NCc3cccc(OC)c3)c2)c1"
Out: -1.46

In: Report log10(IC50) for "O=C(NCc1cccc(Cl)c1)c1cncc(C(=O)NCc2cccc(Cl)c2)c1"
Out: 1.48

In: Report log10(IC50) for "COc1ccc(CNC(=O)c2cncc(C(=O)NCc3ccc(OC)cc3)c2)cc1"
Out: 0.94

All figures here come from patent US7015237B2.
